# System: MALME-3M melanoma
# TEST DESCRIPTION: NCI tumour cell line growth inhibition, 48 h
I'd be grateful if you could share measured TGI for these entries.

In plain terms, CCCN1CN(C(C(=O)N[C@@H]2C(=O)N3C2SC(C)(C)C3C(=O)O)c2ccccc2)CSC1=S (some centres not stated) has a documented TGI of > 100 µM

In plain terms, CCOC(=O)C(NC(=O)c1ccccc1)(Nc1ccc(S(=O)(=O)Nc2nc(C)cc(C)n2)cc1)C(F)(F)F (configuration not stated) has a documented TGI of > 100 µM

In plain terms, COC(=O)C1Cc2cccc(C)c2C1 (configuration not stated) has a documented TGI of > 100 µM

In plain terms, COc1ccc(/C=C2\CN(Cc3cn(CCCNc4ccnc5cc(Cl)ccc45)nn3)C/C(=C\c3ccc(OC)c(OC)c3)C2=O)cc1OC has a documented TGI of 3.54 µM

In plain terms, CN[C@]12CC3(C=CC(=O)C=C3)O[C@@]1(Cc1ccc(OC)cc1)N(C)C(=O)N2 has a documented TGI of 7.85 µM

In plain terms, O=C1C2=Cc3ccccc3OC2(O)Oc2cc(O)ccc21 (configuration not stated) has a documented TGI of > 100 µM

In plain terms, O=C1c2ccccc2-c2nc3ccc(O)cc3n21 has a documented TGI of > 100 µM

In plain terms, COc1ccc(-c2cc(=O)c3c(OC)c(OC)c(OC)c(OC)c3o2)cc1OC has a documented TGI of > 100 µM

In plain terms, COc1ccc(/C=C(\C#N)c2nc(N)nc(N3N=C(C)CC3(C)C)n2)c(O)c1 has a documented TGI of 31.7 µM

In plain terms, COc1ccc(-c2cnc3ccnn3c2-c2cc(OC)c(OC)c(OC)c2)cc1 has a documented TGI of > 100 µM

In plain terms, Cc1cc(C)c(O)c(Cc2cccc(Cc3cc(C)cc(C)c3O)c2O)c1 has a documented TGI of > 100 µM

In plain terms, S=c1nc2[nH]ncc2c(N/N=C/c2ccccc2)[nH]1 has a documented TGI of > 100 µM

----------
# System: OVCAR-8 ovarian
# TEST DESCRIPTION: NCI tumour cell line growth inhibition, 48 h
OBSERVED PROPERTY: TGI

In plain terms, OC(c1cccnc1)C(F)(F)c1nc2ccccc2o1 (configuration not stated) has a documented TGI of > 100 µM

In plain terms, COC(=O)C(C)NP(=O)(OCc1ccc(Cn2cnc3c(=O)[nH]c(N)nc32)cc1)Oc1ccccc1 (configuration not stated) has a documented TGI of > 100 µM

In plain terms, Cc1cc2c(cc1Cl)SC(N/N=C(\N)c1ccc(Cl)cc1)=NS2(=O)=O has a documented TGI of > 100 µM

In plain terms, CCCN1CN(C(C(=O)N[C@@H]2C(=O)N3C2SC(C)(C)C3C(=O)O)c2ccccc2)CSC1=S (some centres not stated) has a documented TGI of > 100 µM

In plain terms, Clc1cc(Cl)c(Cl)c(-c2nc(-c3cccnc3)cs2)c1 has a documented TGI of 66.5 µM

In plain terms, O=C(O)c1ccc2c(c1Nc1ccccc1)C(=O)c1ccccc1C2=O has a documented TGI of > 100 µM

In plain terms, COC(=O)C1=NN2c3ccccc3C(=O)OCCC2(C)C1 (configuration not stated) has a documented TGI of > 100 µM

In plain terms, OCC1OC(Oc2cc(O)cc(/C=C\c3ccc(O)cc3)c2)C(O)C(O)C1O (configuration not stated) has a documented TGI of > 100 µM

In plain terms, COC(=O)C(C(=O)C(=O)NC1=C(Cl)C(=O)c2ccccc2C1=O)c1csc(-n2nc(-c3ccccc3)cc2-c2ccccc2)n1 (configuration not stated) has a documented TGI of > 100 µM

In plain terms, CCOC(=O)c1sc2nc(SC)nc3c2c1N=CN3c1ccccc1Cl has a documented TGI of > 100 µM

In plain terms, Cn1c(=O)c2c(no[n+]2[O-])n(C)c1=O has a documented TGI of 37 µM

In plain terms, CN(CCCNC(=O)c1cn(C)c2c1ccc1cc(Cl)c(Cl)cc12)CCCNC(=O)c1cn(C)c2c1ccc1cc(Cl)c(Cl)cc12 has a documented TGI of 31.2 µM

In plain terms, Cc1cn(C2CC(O)C(Cn3cc(Cn4ncc(=O)[nH]c4=O)nn3)O2)c(=O)[nH]c1=O (configuration not stated) has a documented TGI of > 100 µM

In plain terms, COc1ccc(N=c2ssc(C(=S)Nc3ccc(OC)cc3)c2S)cc1 has a documented TGI of > 100 µM

In plain terms, C#CCN=C(N/N=C/c1ccc([N+](=O)[O-])o1)NS(=O)(=O)c1cc(C)c(Cl)cc1SCC(N)=O has a documented TGI of 29.6 µM

In plain terms, CC[C@@]1(O)C(=O)OCc2c1cc1n(c2=O)Cc2c-1nc1ccc(O)cc1c2CC[Si](C)(C)C has a documented TGI of 0.197 µM

In plain terms, Nc1ncnc2c1ncn2C1C=CC(CP(=O)(O)O)C1 (configuration not stated) has a documented TGI of > 100 µM

In plain terms, Cn1cccc1-c1cc(-c2cccs2)[nH]c(=O)c1C#N has a documented TGI of > 100 µM

In plain terms, Cc1c(C(=O)CC(=O)C(=O)Nc2ccc(Cl)c(Cl)c2)[n+](=O)c2ccccc2n1[O-] has a documented TGI of 43.6 µM

In plain terms, COc1ccc(-c2cc(=O)c3c(OC)c(OC)c(OC)c(OC)c3o2)cc1OC has a documented TGI of > 100 µM

In plain terms, COc1c2c(cc3c1C(O)N1CC[C@]34[C@H]3O[C@H]3[C@H](OC)C[C@@H]14)OCO2 (some centres not stated) has a documented TGI of > 100 µM

In plain terms, O=C(O)C1(C(=O)O)CC1(C(=O)O)C(=O)O has a documented TGI of > 100 µM

In plain terms, CC(NC(=O)C(N)Cc1ccc(O)cn1)C(=O)O (configuration not stated) has a documented TGI of > 100 µM

In plain terms, CC1(C)CC[C@]2(C(=O)O)CC[C@]3(C)C(=CC[C@@H]4[C@@]5(C)C[C@H](O)[C@H](O)[C@@](C)(CO)C5=CC[C@]43C)[C@@H]2C1 has a documented TGI of > 100 µM

In plain terms, N#CC(c1ccccc1)N1CCCN(C(C#N)c2ccccc2)C1c1ccccc1O (configuration not stated) has a documented TGI of > 100 µM

In plain terms, CC(=O)CCNc1ccc(-c2cc(-c3ccc(N(C)C)cc3)nc3ccc4ccccc4c23)cc1 has a documented TGI of > 100 µM

In plain terms, COC(=O)/C(C#N)=C1\CCC(O)N1C (configuration not stated) has a documented TGI of > 100 µM

----------
# Tested on: TK-10 renal
# TEST DESCRIPTION: NCI tumour cell line growth inhibition, 48 h
OBSERVED PROPERTY: TGI

In plain terms, CC(C)(C)[Si](C)(C)OCCCCC1CC2(S(=O)(=O)C3=CC=C=C=C3)ON1CC2S(=O)(=O)c1ccccc1 (stereo not drawn) has a documented TGI of > 100 µM

In plain terms, CCC(C)C1NC(=O)C2CCCN2C(=O)C(CC2CO2)OC(=O)CCNC(=O)C(C)N(C)C(=O)C(C(C)C)N(C)C1=O (stereo not drawn) has a documented TGI of > 100 µM

In plain terms, COc1ccccc1C(C1=C(O)COC1=O)c1cc2c(cc1OC(C)=O)OCO2 (stereo not drawn) has a documented TGI of > 100 µM

----------
I'd be grateful if you could share measured TGI for these entries.
# Test system: SN12C renal
# TEST DESCRIPTION: NCI tumour cell line growth inhibition, 48 h

In plain terms, O=C1/C(=C\C(Cl)=C/c2ccc([N+](=O)[O-])cc2)SC(=S)N1CCc1ccc(O)cc1 has a documented TGI of 1.38 µM

In plain terms, ClCc1ccc(-c2ccc(Cn3cnc4c(Cl)nc(Cl)nc43)cc2)cc1 has a documented TGI of 8.93 µM

In plain terms, COc1ccc(/C=C(\C#N)c2nc(N)nc(N3N=C(C)CC3(C)C)n2)c(O)c1 has a documented TGI of > 100 µM

In plain terms, N#CC(c1ccccc1)N1CCCN(C(C#N)c2ccccc2)C1c1ccccc1O (configuration not stated) has a documented TGI of > 100 µM

In plain terms, O=C(O)C1(C(=O)O)CC1(C(=O)O)C(=O)O has a documented TGI of > 100 µM

In plain terms, Nc1ccccc1N/C(=C\C(=O)C(Cl)(Cl)Cl)c1ccccc1 has a documented TGI of 45.6 µM

In plain terms, COc1ccc(CNC2=C(NC(C)=O)C(=O)c3ccccc3C2=O)cc1 has a documented TGI of > 50 µM

----------
OBSERVED PROPERTY: GI50

Tested on SF-268 CNS: COC(=O)C(C)NP(=O)(OCc1ccc(Cn2cnc3c(=O)[nH]c(N)nc32)cc1)Oc1ccccc1 (stereo not drawn) . Observed GI50: > 100 µM

Tested on SF-268 CNS: COc1ccc(-c2nn(-c3cccc(NC(=O)Nc4ccc(Cl)c(C(F)(F)F)c4)c3)cc2-c2ccncc2)cc1Cl . Observed GI50: 4.21 µM

Tested on SF-268 CNS: CN(C)CCCN(c1nc(C(Cl)(Cl)Cl)ns1)c1nc(C(Cl)(Cl)Cl)ns1 . Observed GI50: 3.12 µM
